test: Terminal half life in Lewis rat at 5 mg/kg, po; format: ADME, organism-based; design: dose 5 mg/kg, route oral; settings: in vivo, read-out: beta t1/2 (converted)
observed-property: half-life
State the result as a value with its unit after it.

INPUT: I'd like to know its half-life. The compound in question is O=C(NCc1cccnc1)c1cc(-n2cnn(Cc3ccc(F)cc3)c2=O)n[nH]1
OUTPUT: 4 h

###

molecular target: Acyl-CoA (8-3)-desaturase (Rattus norvegicus); settings: Sprague-Dawley, Liver, Microsome, at 10 µM
Description: Inhibition of delta5 desaturase in Sprague-Dawley rat liver microsome at 10 uM by thin layer chromatography method
The source made the active and inactive calls. The calls are words filed in the database; no cut-off is given here.
observed-property: inhibition

Please review the following examples before continuing.
Cc1nc(-n2cnn(Cc3ccc(F)cc3)c2=O)sc1C(=O)NCc1ncco1 : inactive
Cc1nc(-n2cnn(Cc3ccc(C(F)(F)F)cc3)c2=O)sc1C(=O)NCc1ccccn1 : inactive
Cc1nc(-n2cnn(Cc3ccc(C(F)(F)F)o3)c2=O)sc1C(=O)NCc1cccnc1 : inactive
Cc1nc(-n2cnn(CCOc3ccc(F)cc3)c2=O)sc1C(=O)NCc1cccnc1 : inactive

INPUT: Return inhibition measured with Acyl-CoA (8-3)-desaturase (Rattus norvegicus) given this compound: O=C(NCc1cccnc1)c1cc(-n2cnn(Cc3ccc(F)cc3)c2=O)n[nH]1
OUTPUT: inactive

INPUT: Under Acyl-CoA (8-3)-desaturase (Rattus norvegicus): inhibition value of Cc1nc(-n2cnn(Cc3ccc(F)cc3)c2=O)sc1C(=O)NCc1cn(C)cn1 ?
OUTPUT: inactive

INPUT: For the record Cc1nc(-n2cnn(Cc3ccc(F)cc3)c2=O)sc1C(N)=O , what value of inhibition is listed for Acyl-CoA (8-3)-desaturase (Rattus norvegicus)?
OUTPUT: inactive

INPUT: I'm curious: which inhibition was measured for Cc1cc(CNC(=O)c2sc(-n3cnn(Cc4ccc(F)cc4)c3=O)nc2C)[nH]n1 tested on Acyl-CoA (8-3)-desaturase (Rattus norvegicus)?
OUTPUT: inactive

INPUT: // map Cc1nc(-n2cnn(Cc3cc(F)cc(F)c3)c2=O)sc1C(=O)NCc1cccnc1 to recorded inhibition (system: Acyl-CoA (8-3)-desaturase (Rattus norvegicus));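 note: Delta5 desaturase inhibition determined by thin layer chromatography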
OUTPUT: inactive

INPUT: Item Cc1ncc(CNC(=O)c2sc(-n3cnn(Cc4ccc(F)cc4)c3=O)nc2C)s1 with Acyl-CoA (8-3)-desaturase (Rattus norvegicus) - inhibition?
OUTPUT: inactive

###

experiment: Clearance in Lewis rat at 1 mg/kg, iv; type: ADME, organism-based; set-up: dose 1 mg/kg, route intravenous; settings: in vivo
observed-property: clearance
Answer as a quantity: numeral, then unit.

INPUT: Entry O=C(NCc1cccnc1)c1cc(-n2cnn(Cc3ccc(F)cc3)c2=O)n[nH]1 has what clearance?
OUTPUT: 18.3 mL/min/kg

###

experiment: Permeability from basolateral to apical side side in human Caco2 cells; details: Caco-2
Papp B→A reference
Give a bare numeral; the unit ×10⁻⁶ cm/s is implied.

Known Papp B→A results, listed for orientation:
Cc1cnc(CNC(=O)c2sc(-n3cnn(Cc4ccc(F)cc4)c3=O)nc2C)cn1 : 28
Cc1nc(-n2cnn(Cc3ccc(C(F)(F)F)cc3)c2=O)sc1C(=O)NCc1ccccn1 : 23

INPUT: Bench note: what Papp B→A did Cc1nc(-n2cnn(Cc3ccc(C(F)(F)F)o3)c2=O)sc1C(=O)NCc1cccnc1 show?
OUTPUT: 31

INPUT: Entry Cc1nc(-n2cnn(Cc3ccc(C(F)(F)F)cc3)c2=O)sc1C(=O)NCc1cccnc1 has what Papp B→A?
OUTPUT: 15
